- tested on: T1, recombinant human Nectin4 antigen (human, UniProt Q96NY8 32-349)
- T1 construct: construct not described
- T1 sequence (looked up): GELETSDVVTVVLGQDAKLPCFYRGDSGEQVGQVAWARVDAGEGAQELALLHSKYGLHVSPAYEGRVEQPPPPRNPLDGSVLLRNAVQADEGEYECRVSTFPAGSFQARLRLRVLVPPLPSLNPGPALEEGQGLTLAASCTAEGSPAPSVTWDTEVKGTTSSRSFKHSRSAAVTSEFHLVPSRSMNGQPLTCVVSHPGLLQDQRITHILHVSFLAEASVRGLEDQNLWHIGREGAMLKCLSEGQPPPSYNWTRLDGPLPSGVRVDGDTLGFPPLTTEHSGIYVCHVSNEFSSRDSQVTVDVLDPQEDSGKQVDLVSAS
- experiment: ELISA, coated antigen, PSB pH 7.4
observed property: EC50 (µg/mL)
The answer is to be given in µg/mL; state only the numeric part.

Any idea what EC50 was measured for BAP-143-00-03 (antibody, V domains shown, Used as a conjugate with a linker payload (CAB ADC)) VH: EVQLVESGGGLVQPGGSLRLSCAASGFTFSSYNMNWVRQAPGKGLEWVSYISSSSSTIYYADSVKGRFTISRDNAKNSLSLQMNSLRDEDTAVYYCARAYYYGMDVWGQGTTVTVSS VL: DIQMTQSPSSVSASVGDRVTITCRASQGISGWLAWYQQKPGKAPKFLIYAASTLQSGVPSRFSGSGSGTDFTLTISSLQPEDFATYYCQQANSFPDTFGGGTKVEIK ?
0.245

Also need BAP-143-00-04 (antibody, V domains shown, Used as a conjugate with a linker payload (CAB ADC)) VH: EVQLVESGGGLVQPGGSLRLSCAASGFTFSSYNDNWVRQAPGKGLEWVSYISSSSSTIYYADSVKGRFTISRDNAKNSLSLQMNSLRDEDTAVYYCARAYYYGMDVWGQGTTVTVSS VL: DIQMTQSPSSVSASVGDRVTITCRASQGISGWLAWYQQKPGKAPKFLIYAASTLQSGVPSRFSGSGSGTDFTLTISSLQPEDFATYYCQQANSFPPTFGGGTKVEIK , thanks.
0.061

Now try BAP-143-wildtype (antibody, V domains shown, 150 kDa used in SPR; also called BAP143-00-00; benchmark (BM)) VH: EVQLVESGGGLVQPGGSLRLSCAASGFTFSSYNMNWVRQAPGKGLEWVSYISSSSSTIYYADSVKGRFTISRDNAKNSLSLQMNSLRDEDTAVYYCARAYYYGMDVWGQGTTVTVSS VL: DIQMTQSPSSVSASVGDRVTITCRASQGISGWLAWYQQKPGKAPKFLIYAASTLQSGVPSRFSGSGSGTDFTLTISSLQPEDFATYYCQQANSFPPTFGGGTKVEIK .
0.0202
